Assay: doxorubicin toxicity protection in MRP-1 cells – H69AR cells, CellTiter-Glo, duplicate, MRP-1 activator project, pilot screen (AID 807);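 also: compound pretreatment 18-22 h then 72 h combined with doxorubicin; 0% = doxorubicin alone and 100% = vehicle without doxorubicin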
Conditions: H69AR viability with doxorubicin, CellTiter-Glo luminescence; at 10 µM; hits give high values
The source made the active and inactive calls.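 The calls were made as follows: active = viability increase at or above a cutoff of the median across tested compounds plus 3 SD (cut at about 8.5% in these data, passing the limit was not always enough); inconclusive = some gains above the cutoff, reason not given; inactive = the rest.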
MEASURED METRIC: viability increase

Name the recorded viability increase for COc1ccc(NC(=O)C(c2ccc(C)cc2)N(C)C(=O)c2cnccn2)cc1 (centres undefined) . -1.03% (inactive)

Name the recorded viability increase for CC1=C(C(N)=O)C(c2ccccn2)n2nc(SCc3ccccc3)nc2N1 (centres undefined) . 2.38% (inactive)

Name the recorded viability increase for Cc1cc(C)nc(NS(=O)(=O)c2ccc(Br)s2)c1 . -0.89% (inactive)

Name the recorded viability increase for Cc1ccc(S(=O)(=O)NCc2nc3ccccc3[nH]2)cc1 . 1.61% (inactive)

Name the recorded viability increase for COC(=O)Nc1c(C(=O)OC)cc(OC)c(OC)c1OC . -2.87% (inactive)

Name the recorded viability increase for COc1ccc(C2CC(c3ccco3)n3ncnc3N2)cc1 (centres undefined) . -0.91% (inactive)

Name the recorded viability increase for COc1ccccc1S(=O)(=O)Cc1ccc(C(=O)N2CCOCC2)o1 . -2.08% (inactive)

Name the recorded viability increase for c1ccc(-n2ncc3c(NC4CCCCCC4)ncnc32)cc1 . -2.91% (inactive)

Name the recorded viability increase for CC(NC(=O)C1CC1)C(c1cccs1)N1CCN(c2ccccc2)CC1 (centres undefined) . 0.65% (inactive)

Name the recorded viability increase for CC1CCN(C(C(=O)Nc2ccc3c(c2)OCO3)c2ccccc2)CC1 (centres undefined) . -2.94% (inactive)

Name the recorded viability increase for COCCCNc1nc2c(c(=O)[nH]c(=O)n2C)n1CC(O)COc1ccccc1C (centres undefined) . -2.64% (inactive)

Name the recorded viability increase for CCOc1ccc(NC(=O)C2C3C=CC4(CN(C(C(=O)OC)C(C)C)C(=O)C24)O3)cc1 (centres undefined) . -1.43% (inactive)

Name the recorded viability increase for Cc1ccc(SCC(=O)NCCN2C(=O)CSC2=O)c(C)c1 . -0.38% (inactive)

Name the recorded viability increase for Cc1cc(NC(=O)CSc2c3c(nc4ccccc24)CCC3)no1 . -6.01% (inactive)

###

Experiment: HUVEC growth inhibition – cell-based, human, primary screen (AID 575);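 also: 100% = median of untreated cell wells with 0.1% DMSO on each plate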
Conditions: HUVEC proliferation, CellTiter-Glo luminescence, 72 h; at 10 µM; hits give low values
MEASURED METRIC: viability (%)
All answers are understood in %, so give the number only.

Name the recorded viability for COc1cccc(-c2nc(CS(=O)(=O)CC(=O)NCc3ccc(Cl)cc3)c(C)o2)c1 . 42.8

Name the recorded viability for COC(=O)Cn1c(=O)c2c(nc3n2CC(C)CN3c2ccc(C)c(C)c2)n(C)c1=O (configuration not stated) . 93.2

Name the recorded viability for COC(=O)CN(c1ccc(OC)cc1)S(=O)(=O)c1ccc(OC)c(OC)c1 . 96.5

Name the recorded viability for CC(C(=O)Oc1ccc2c(c1)OCO2)N1C(=O)c2ccccc2C1=O (configuration not stated) . 79.5

Name the recorded viability for COc1ccc(OC)c(NC(=O)CSc2nnc(Cc3cccn3C)n2-c2ccc(F)cc2)c1 . 62.7

Name the recorded viability for Cc1cc(=O)oc2c1c(C)nn2-c1ccc(C(=O)OC(C)C)cc1 . 99

Name the recorded viability for O=C(CC1Oc2ccc(Cl)cc2NC1=O)NC1CCCCCC1 (configuration not stated) . 78.1

Name the recorded viability for CCCSC1=C(C#N)C(c2cc(OC)ccc2OC)CC(=O)N1 (configuration not stated) . 98.3

Name the recorded viability for O=C(CSc1nnnn1-c1ccccc1)Nc1ccc(Cl)cc1 . 99.1

Name the recorded viability for COc1ccc(C(C)N2CC34C=CC(O3)C(C(=O)OCC(C)C)C4C2=O)cc1 (configuration not stated) . 97.2

Name the recorded viability for CC(c1ccccc1)n1cnc2ccccc21 (configuration not stated) . 93.4

Name the recorded viability for Cc1cc(C)c(C#N)c(SCC(=O)Nc2ccc(S(=O)(=O)Nc3onc(C)c3C)cc2)n1 . 82.4

Name the recorded viability for CNC(=O)c1ccccc1NC(=O)c1c(O)c2c([nH]c1=O)CCCC2 . 98.9

Name the recorded viability for Cc1ccc(CSc2nc3c(c(=O)[nH]2)CCC3)cc1 . 79.7

Name the recorded viability for Cc1nonc1NC(=O)c1ccccc1Br . 95.8

Name the recorded viability for O=C(CCn1c(=O)oc2ccccc21)NCc1ccco1 . 89.9

Name the recorded viability for COc1ccc(CCNC(=O)C2(C)CCC(=O)N2Cc2ccc3c(c2)OCO3)cc1OC (configuration not stated) . 88.2

Name the recorded viability for CC1=C(C(=O)OC(C)C)C(c2cccc(F)c2)n2ncnc2N1 (configuration not stated) . 101

Name the recorded viability for CCOc1ccc(-c2nnc(N(CC)C(=O)C3CCC3)s2)cc1 . 98.5

Name the recorded viability for Oc1ccc2ccccc2c1CN1CCN(c2ccccc2F)CC1 . 90.1

Name the recorded viability for CC(OC(=O)C1CC=CCC1C(N)=O)C(Cl)=C(Cl)Cl (configuration not stated) . 80.8

Name the recorded viability for O=C(Nc1ccncc1)c1cccc(F)c1 . 91.5

###

Kindly state viability increase for each of the entries shown.
Assay: doxorubicin toxicity protection in MRP-1 cells – H69AR cells, CellTiter-Glo, duplicate, MRP-1 activator project, pilot screen (AID 807);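 also: compound pretreatment 18-22 h then 72 h combined with doxorubicin; 0% = doxorubicin alone and 100% = vehicle without doxorubicin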
Settings: H69AR viability with doxorubicin, CellTiter-Glo luminescence; at 10 µM; hits give high values
Activity calls are given as the source filed them.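 The calls were made as follows: active = viability increase at or above a cutoff of the median across tested compounds plus 3 SD (cut at about 8.5% in these data, passing the limit was not always enough); inconclusive = some gains above the cutoff, reason not given; inactive = the rest.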

Name the recorded viability increase for COc1cccc(NC(=O)c2nnn(Cc3ccc(Br)cc3F)c2N)c1 . -0.51% (inactive)

Name the recorded viability increase for COc1ccc(OCCNS(=O)(=O)c2ccccc2)cc1 . 0.87% (inactive)

Name the recorded viability increase for O=C(CCN1C(=O)c2ccccc2C1=O)N1CCN(Cc2ccc(Cl)cc2Cl)CC1 . 1.45% (inactive)

Name the recorded viability increase for Cc1ccc(F)c(NC=C2C(=O)OC(C)(C)OC2=O)c1 . 0.97% (inactive)

Name the recorded viability increase for COC(=O)CCC(=O)Nc1ccc(OC)cc1 . -1.06% (inactive)

Name the recorded viability increase for COC(=O)c1c(NC(=O)c2nc3ccccc3s2)sc2c1CCN(C(C)=O)C2 . -6.02% (inactive)

Name the recorded viability increase for CCOC(=O)N1CCN(C(=O)CN(C2CCCCC2)S(=O)(=O)c2ccc(F)cc2)CC1 . 0.22% (inactive)

Name the recorded viability increase for c1ccc(Cn2nnc3c(N4CCCCCC4)ncnc32)cc1 . -0.65% (inactive)

Name the recorded viability increase for COc1ccc(OCCSc2nc3ccccc3n2CC(=O)O)cc1 . -0.98% (inactive)

Name the recorded viability increase for S=c1[nH]nc(CSc2nc3ccccc3s2)o1 . -4.34% (inactive)

Name the recorded viability increase for C=CCNC(=O)CSc1nc2sc(C)c(C)c2c(=O)[nH]1 . -1.02% (inactive)

Name the recorded viability increase for Cc1onc(-c2ccccc2Cl)c1C(=O)N1CCc2ccccc21 . -3.41% (inactive)

Name the recorded viability increase for CCOC(=O)N1CCN(C(=O)CSc2nnc(-c3cccc(Cl)c3)o2)CC1 . -0.22% (inactive)

Name the recorded viability increase for COc1ccc(OCc2nnc(SCC(=O)O)n2N)cc1 . 1.25% (inactive)

Name the recorded viability increase for O=C(CN1C(=O)NC(Cc2ccccc2)C1=O)Nc1ccccc1 (centres undefined) . 1.83% (inactive)

Name the recorded viability increase for O=C(O)c1cnn2c1NC(c1cccs1)CC2C(F)(F)F (centres undefined) . 0.98% (inactive)

Name the recorded viability increase for CC(NC(=O)c1noc2c1CCCCC2)c1ccccc1 (centres undefined) . 1.66% (inactive)

Name the recorded viability increase for C(/CCc1ccccc1)=N\n1cnnc1 . -1.24% (inactive)

Name the recorded viability increase for O=C(O)CC(CNS(=O)(=O)c1ccccc1)c1ccccc1 (centres undefined) . 0.76% (inactive)

###

Assay: RAM pathway blockade in budding yeast – dse1pr::URA3 reporter, 5-FOA selection, pilot screen (AID 869);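 also: 0% = DMSO wells with no growth and 100% = 10 µM 1-NA-PP1 with full growth; RAM network block rescues cells from 5-FOA so hits raise OD615 growth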
Details: S. cerevisiae dse1pr::URA3 5-FOA growth, OD615, 2 d; at 10 µM; hits give high values; strain carries analog-sensitive mutant Cbk1 kinase
Kindly state inhibition for each of the entries shown.
All answers are understood in %, so give the number only.

Name the recorded inhibition for COCc1cc(C)nc(Nc2ccc(C)cc2C)c1C#N . 1.15

Name the recorded inhibition for O=C(Nc1nccs1)c1cc(S(=O)(=O)N2CCCCC2)ccc1Cl . 1.89

Name the recorded inhibition for Cc1cccc(C2CC(c3ccccc3)Nc3nc(N)nn32)c1 (stereo not drawn) . -0.64

Name the recorded inhibition for O=C(Nc1ccc2c(c1)OCO2)C1COc2ccccc2O1 (stereo not drawn) . 2.16

Name the recorded inhibition for CCOC(=O)C(C)(C)Sc1nc2c(cnn2-c2ccc(Cl)cc2)c(=O)[nH]1 . 1.89

Name the recorded inhibition for Cn1c(=O)[nH]c(=O)c2c1nc(N1CCCCC1)n2CCSc1ncccn1 . 2.44

Name the recorded inhibition for Cc1ccc(C(=O)Nc2ccccc2NC(=O)c2ccc(C)o2)o1 . 1.41

Name the recorded inhibition for C=CCSc1nnc(Cc2c(C)[nH]c3ccccc23)o1 . -0.545
